Please respond with reported TGI for every item in the list.
Tested on: A498 renal
experimentSummary: NCI tumour cell line growth inhibition, 48 h

compound	propertyLabel	obsValue
CCOc1ccc(NC(=O)CC2C(=O)Nc3ccccc3S2=O)cc1 (centres undefined)	TGI	> 78.5 µM

Hi, could you look up TGI for each item in my list?
1. COc1cc(C(C)c2cc3c(cc2OCCN)OCO3)cc(OC)c1OC (centres undefined)
2. O=C(/C=C/c1cccc2ccccc12)c1ccccc1

1: > 100 µM; 2: 33.3 µM

Hi, could you look up TGI for each item in my list?
1. COc1ccc(C2c3c(n(C)c(=O)n(C)c3=O)OC(N(C)C)(N(C)C)C2(F)F)cc1 (centres undefined)
2. O=C(OC1C=C=CS(=O)(=O)CC#C/C=C\1)c1cnc2ccccc2n1 (centres undefined)
3. ClCc1nn(-c2ccccc2)c(CCl)c1CCl
4. CC(=O)OC1(C)C(=O)OC/C2=C/CN(C)CCC(OC(=O)C(O)(C(C)Cl)CC1C)C2=O (centres undefined)
5. C[C@]12CC[C@@H]3c4ccc(O)cc4CC[C@H]3[C@@H]1CC[C@@H]2NS(=O)(=O)c1cccc(OC(F)(F)F)c1
6. CCOP(=O)(OCC)/C(C#N)=C/c1coc2cc(C)cc(C)c2c1=O
7. Clc1ccc(Cl)c(NNc2cc(Cl)ccc2Cl)c1
8. O=C1C=C(Nc2ccc([N+](=O)[O-])cc2)c2ccccc2C1=O

> 100 µM
> 100 µM
24.5 µM
> 100 µM
2.79 µM
> 100 µM
> 10 µM
6.75 µM

Hi, could you look up TGI for each item in my list?
1. C=C(C(=O)OC1C(CO)OC(OCC2CC[C@@H]3C[C@]4(OC(=O)C3=C)C(C)=CC(=O)C24)C(O)C1O)[C@@H]1CCC(CO)C2C(=O)C=C(C)[C@@]2(O)C1 (some centres undefined)
2. C=C1CC(Cn2cc(C)c(=O)[nH]c2=O)(c2ccc(Cl)cc2)OC1=O (centres undefined)
3. CC(=O)Oc1cc2oc(=O)cc(C)c2cc1OC(C)=O
4. COc1cccc2c1C(=O)C1(O)CCCCC21 (centres undefined)
5. CC(C)(C)N1C(=O)N=[N+](/C(=C(\c2ccccc2)n2nc([O-])n(C(C)(C)C)c2=O)c2ccccc2)C1=O
6. COC1(C)OC[C@@]2(C)OC(C)C1(C)C2O[Si](C(C)C)(C(C)C)C(C)C (some centres undefined)
7. Cc1cc(CN2CCCCC2)c(O)c(CN2CCCCC2)c1
8. CCOC(=O)Nc1nc2cc(OC)c(OC)c(OC)c2s1

1. 9.86 µM
2. 22.8 µM
3. > 100 µM
4. > 100 µM
5. > 100 µM
6. > 100 µM
7. > 100 µM
8. > 100 µM

Hi, could you look up TGI for each item in my list?
1. O/N=C(\C(=N/O)Nc1ccc(-c2ccc(NC(=N/O)/C(=N\O)c3ccccc3)cc2)cc1)c1ccccc1
2. COC(=O)C(C(=O)C(=O)Nc1nc(=S)[nH][nH]1)c1csc(N)n1 (centres undefined)
3. Cc1c(C)c(S(=O)(=O)N(CCCCCCN)OCCCN)c(C)c2c1OC(C)(C)CC2
4. O=C(O)CN1CCN(CC(=O)O)CCN(CC(=O)O)CC1
5. C=CCSSC1N=CNc2nc[nH]c21 (centres undefined)
6. COc1ccc(/C(COc2ccc3c(c2)oc(=O)c2cc(OC)ccc23)=N/O)cc1
7. O=C(O)C(C(C(=O)O)P(=O)(O)O)P(=O)(O)O (centres undefined)
8. NC(C(=O)O)c1cc(=O)[nH]o1 (centres undefined)

1. 51 µM
2. > 100 µM
3. 40.3 µM
4. > 75.8 µM
5. > 100 µM
6. 52.2 µM
7. > 100 µM
8. > 100 µM

Hi, could you look up TGI for each item in my list?
1. CC(NS(=O)(=O)c1ccc(Cl)cc1)C(=O)O (centres undefined)
2. COC(=O)c1c(O)c2c(c3c1OC(C)(C)CC3)OC(C)(C)CC2
3. N#CC(C#N)=C(C(C#N)C#N)C(C#N)C#N

> 100 µM
34.4 µM
> 100 µM

Hi, could you look up TGI for each item in my list?
1. CCOC(=O)Nn1cnnc1C
2. CCCCCc1cccc(=O)o1
3. CC/C(=C(\c1ccc(Cl)cc1)c1ccc(OCCN2CCCCC2)cc1)c1ccc(O)cc1
4. NS(=O)(=O)c1ccc(N=Nc2ncccc2O)cc1

> 100 µM
> 100 µM
16.5 µM
> 100 µM

Hi, could you look up TGI for each item in my list?
1. O=C1C[C@@H](c2ccc(O)cc2)[C@@]2(O1)C(=O)O[C@H]([C@@H](O)CO)[C@@H]2O
2. CC(=O)N1CCN([C@H]2CCC[C@@H](NC(=O)c3cc4c(F)ccc(C)c4[nH]3)C2)CC1
3. Cc1cn(C2CC(Br)C(COC(c3ccccc3)(c3ccccc3)c3ccccc3)O2)c(=O)[nH]c1=O (centres undefined)
4. CC(C)CC(N=Cc1nc(-c2ccccc2)oc1O)C(=O)O (centres undefined)
5. O=C(O)c1ccc(C=C2Sc3ccccc3S2)cc1

> 100 µM
> 100 µM
29.9 µM
> 100 µM
39.6 µM

---

System: IGROV1 ovarian
experimentSummary: NCI tumour cell line growth inhibition, 48 h
Please respond with reported TGI for every item in the list.

Record excerpt, results attached:
>>> df
                                   compound  obsvalue
0           COc1ccc(-n2sc3ncc(C)cc3c2=O)cc1  > 100 µM
1  COc1cc(/C=C2/SC(c3ccccc3)N(c3cc(Cl)ccc3Cl)C2=O)cc(OC)c1OC (stereo not drawn)  > 100 µM

TGI of COc1ccc2c(c1)SC1=NNC(Cl)C(=O)N12 (stereo not drawn) on IGROV1 ovarian? > 100 µM

---

Please respond with reported TGI for every item in the list.
Tested on: U251 CNS
experimentSummary: NCI tumour cell line growth inhibition, 48 h

Record excerpt, results attached:
                                   compound  obsvalue
0  N#Cc1c(O)c(C=Nc2ccc(Cl)cc2)c(=O)n2c1[nH]c1ccccc12  > 100 µM
1  CC(=O)OC1COC(n2c3ccccc3c3ccc4c5ccccc5[nH]c4c32)C(OC(C)=O)C1OC(C)=O (stereo not drawn)   74.2 µM
2  Cc1cc2nc3c4cc(C=O)ccc4n(CCN(C)C)c3nc2cc1C   10.1 µM

Hi, could you look up TGI for each item in my list?
1. CCOc1ccc(NC(=O)CC2C(=O)Nc3ccccc3S2=O)cc1 (stereo not drawn)
2. Cn1cc(C2=C(c3cn(C)c4ccc(OCc5ccccc5)cc34)C(=O)NC2=O)c2ccccc21
3. CC(NS(=O)(=O)c1ccc(Cl)cc1)C(=O)O (stereo not drawn)
4. C/C(O)=c1\cc(C#N)c(=C(C#N)C#N)nc1C

["> 75.4 µM", "> 25 µM", "> 100 µM", "> 100 µM"]

Quick one: TGI for CCOC(=O)Nn1cnnc1C ? > 100 µM

---

In what follows, each item is paired with its GI50 for SK-MEL-5 melanoma.

Record excerpt, results attached:
>>> df
                                   compound  propertylabel  obsvalue
0   COC(=O)C(=Cc1ccccc1[N+](=O)[O-])C(=O)OC           GI50   2.55 µM
1  O=C1C=CC(=O)C(c2cc(-c3ccc(Cl)cc3)nn2-c2ccccc2)=C1           GI50   18.3 µM
2  C/C(Cc1ccc(Cl)cc1)=C(\c1ccc(OCCN2CCCCCC2)cc1)c1ccc(OC(=O)c2ccccc2)cc1           GI50    2.3 µM
3  COc1ccccc1N1CCN(CC(O)COc2c(Br)c(Br)c(Br)c3c2OC(C)(C)C3)CC1 (stereo not drawn)           GI50   4.91 µM
4  C[C@]12CC[C@@H]3c4ccc(O)cc4CC[C@H]3[C@@H]1CC[C@@H]2NS(=O)(=O)c1cccc(OC(F)(F)F)c1           GI50    1.7 µM

Hi, could you look up GI50 for each item in my list?
1. Cc1ccc2cc3c(N)c4c(C)ccc(C)c4nc3nc2c1
2. COc1ccc(/C(COc2ccc3c(c2)oc(=O)c2cc(OC)ccc23)=N/O)cc1
3. CCC[CH2][Sn]1([CH2]CCC)[O]CC(c2ccccn2)C[O]1

["8.14 µM", "4.27 µM", "17 µM"]

---

Tested on: HOP-92 NSCLC
experimentSummary: NCI tumour cell line growth inhibition, 48 h
Please respond with reported TGI for every item in the list.

Record excerpt, results attached:
                               samplesmiles   obsvalue
0    O=C1Cc2c([nH]c3ccc(Cl)cc23)-c2ccccc2N1   > 100 µM
1  Cc1cc(C)nc(NS(=O)(=O)c2ccc(NNc3c4ccccc4nc4c(C(=O)Nc5ccc(S(=O)(=O)N=C(N)N)cc5)cccc34)cc2)n1   > 100 µM
2  CCc1nc(N)nc(N)c1-c1ccc2c(c1)nnn2CCc1ccccc1  > 79.6 µM

Hi, could you look up TGI for each item in my list?
1. CC(C)(C)N1C(=O)N=[N+](/C(=C(\c2ccccc2)n2nc([O-])n(C(C)(C)C)c2=O)c2ccccc2)C1=O
2. CCSc1nc2[nH]c(=S)[nH]c(=S)c2c(-c2ccc(OC)c(OC)c2)c1C#N

1. > 100 µM
2. > 50 µM
